Biological target: TcMCP-1 (Trypanosoma cruzi, UniProt Q6ZXC0)
Sequence (Q6ZXC0 entry or part of it): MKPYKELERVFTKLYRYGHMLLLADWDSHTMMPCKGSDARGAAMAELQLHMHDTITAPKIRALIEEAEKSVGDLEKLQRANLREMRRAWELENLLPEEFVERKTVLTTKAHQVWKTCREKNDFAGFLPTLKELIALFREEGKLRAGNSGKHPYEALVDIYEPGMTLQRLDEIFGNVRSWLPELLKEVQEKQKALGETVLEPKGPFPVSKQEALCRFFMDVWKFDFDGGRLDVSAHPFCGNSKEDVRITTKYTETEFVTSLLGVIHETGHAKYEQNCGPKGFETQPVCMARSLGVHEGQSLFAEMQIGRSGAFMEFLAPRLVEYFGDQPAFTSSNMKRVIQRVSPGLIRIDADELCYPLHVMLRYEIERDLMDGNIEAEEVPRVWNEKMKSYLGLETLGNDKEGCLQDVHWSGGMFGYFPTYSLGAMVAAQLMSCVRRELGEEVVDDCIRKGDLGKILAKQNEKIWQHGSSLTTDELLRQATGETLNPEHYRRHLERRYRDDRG
Assay: Continuous fluorogenic (FRET) TcMCP-1 assay with Abz-LKFK(Dnp)-OH, primary and secondary screening
Format: biochemical
Details: single inhibitor concentration 31,5 µM
Quick reference for TcMCP-1 Secondary screening Inhibition (%) among some compounds

Q. # TcMCP-1 Secondary screening Inhibition (%) lookup, item CC(C)N(C(=O)CN1C(=O)C(N)C(=O)N(c2ccccc2)c2ccccc21)c1ccccc1 (centres unmarked)
A. 28,65%

Q. # TcMCP-1 Secondary screening Inhibition (%) lookup, item "Cl.NS(=O)(=O)c1ccc(Nc2ncc3cccc(OC4CCNCC4)c3n2)cc1"
A. 63,12%

Q. # TcMCP-1 Secondary screening Inhibition (%) lookup, item CN(CC1CCCO1)S(=O)(=O)c1ccc(C(=O)Nc2nc(-c3ccccn3)cs2)cc1 (centres unmarked)
A. 74,11%

Q. # TcMCP-1 Secondary screening Inhibition (%) lookup, item Cn1ccnc1CN1CCc2[nH]cnc2C1c1ccccc1OCc1ccccc1 (centres unmarked)
A. 52,68%

Q. # TcMCP-1 Secondary screening Inhibition (%) lookup, item "COc1ccc2ncc(Cl)c(CCN3CC[C@@H](NCc4cc5c(cn4)OCS5)[C@H](O)C3)c2n1"
A. 70,48%
